Cryptococcus gattii data, read-out MIC

>  <molecule>
Nc1ncccc1-c1cc(Cc2ccc(-c3ccccn3)cc2)no1 [compound 203]

>  <MIC>
0.1 to 1 µg/mL

$$$$
>  <molecule>
Nc1ncccc1-c1cc(Cc2ccc(OCc3cccc(F)c3)nc2)no1 [compound 80]

>  <MIC>
0.01 to 0.1 µg/mL

$$$$
>  <molecule>
Nc1ncccc1-c1cc(Cc2ccc(OCc3cccs3)nc2)no1 [compound 40]

>  <MIC>
0.01 to 0.1 µg/mL

$$$$
>  <molecule>
Nc1ncccc1-c1cc(Cc2ccc(Cc3ccccc3)cc2)no1 [compound 8]

>  <MIC>
≤ 0.01 µg/mL

$$$$
>  <molecule>
Nc1ncccc1-c1cc(Cc2ccc(CNc3nc(Cl)cs3)cc2)no1 [compound 34]

>  <MIC>
0.1 to 1 µg/mL

$$$$
>  <molecule>
Nc1ncccc1-c1cc(Cc2ccnc(OCC3CC3)c2)no1 [Example 150]

>  <MIC>
0.1 to 1 µg/mL

$$$$
>  <molecule>
Nc1ncccc1-c1cc(Cc2ccc(Cc3cn[nH]c3)cc2)no1 [compound 10]

>  <MIC>
0.1 to 1 µg/mL

$$$$
>  <molecule>
Nc1ncccc1-c1cc(Cc2ccnc(OCCc3cccc(F)c3)c2)no1 [Example 146]

>  <MIC>
0.1 to 1 µg/mL

$$$$
>  <molecule>
Nc1ncccc1-c1cc(Cc2ccc(OCc3ccc(Cl)s3)nc2)no1 [compound 221]

>  <MIC>
0.1 to 1 µg/mL

$$$$

====

Cryptococcus neoformans H99 data, read-out MIC

>  <compound>
Nc1ncccc1-c1cc(Cc2ccnc(OCc3ccccc3F)c2)no1 [Example 149]

>  <MIC>
0.01 to 0.1 µg/mL

$$$$
>  <compound>
Nc1ncccc1-c1cc(Cc2ccc(OCc3cccc(F)c3)cc2)no1 [Example 138]

>  <MIC>
0.01 to 0.1 µg/mL

$$$$
>  <compound>
Nc1ncccc1-c1cc(Cc2ccc(SCc3ccccc3)nc2)no1 [compound 61]

>  <MIC>
0.1 to 1 µg/mL

$$$$
>  <compound>
Nc1ncccc1-c1cc(Cc2ccc(Oc3ncccn3)cc2)no1 [compound 243]

>  <MIC>
0.1 to 1 µg/mL

$$$$
>  <compound>
Cc1csc(COc2ccc(Cc3cc(-c4cccnc4N)on3)cn2)n1 [compound 82]

>  <MIC>
0.01 to 0.1 µg/mL

$$$$
>  <compound>
Cc1nc(COc2ccc(Cc3cc(-c4cccnc4N)on3)cn2)cs1 [compound 50]

>  <MIC>
0.1 to 1 µg/mL

$$$$
>  <compound>
Nc1ncccc1-c1cc(Cc2ccc(CCc3ccccc3)cc2)no1 [compound 18]

>  <MIC>
0.1 to 1 µg/mL

$$$$
>  <compound>
Nc1ncccc1-c1cc(Cc2ccc(OCc3nccs3)nc2)no1 [compound 42]

>  <MIC>
0.01 to 0.1 µg/mL

$$$$
>  <compound>
Nc1ncccc1-c1cc(Cc2ccc(OCc3cccc(Br)n3)nc2)no1 [compound 223]

>  <MIC>
0.1 to 1 µg/mL

$$$$
>  <compound>
Nc1ncccc1-c1cc(Cc2ccc(CNc3ccccc3F)cc2)no1 [compound 106]

>  <MIC>
0.1 to 1 µg/mL

$$$$
>  <compound>
Nc1ncccc1-c1cc(Cc2ccc(Cc3cccc(F)c3)cc2)no1 [compound 208]

>  <MIC>
0.01 to 0.1 µg/mL

$$$$
>  <compound>
Nc1ncccc1-c1cc(Cc2ccc(OCC3CCC3)nc2)no1 [compound 57]

>  <MIC>
0.01 to 0.1 µg/mL

$$$$
>  <compound>
Nc1ncccc1-c1cc(Cc2ccc(OCc3cc(Cl)nc(Cl)c3)nc2)no1 [compound 219]

>  <MIC>
> 1 µg/mL

$$$$
>  <compound>
Nc1ncccc1-c1cc(Cc2ccc(OCc3ncccn3)cc2)no1 [compound 28]

>  <MIC>
0.1 to 1 µg/mL

$$$$
>  <compound>
Nc1ncccc1-c1cc(Cc2ccc(Nc3cc(F)cc(F)c3)nc2)no1 [compound 238]

>  <MIC>
0.1 to 1 µg/mL

$$$$
>  <compound>
c1ccc(OCc2ccc(Cn3cc(-c4cccnc4)cn3)cc2)nc1 [compound 62]

>  <MIC>
> 1 µg/mL

$$$$
>  <compound>
Nc1ncccc1-c1cc(Cc2ccc(OCc3cnc4ccccc4n3)cc2)no1 [compound 30]

>  <MIC>
> 1 µg/mL

$$$$
>  <compound>
Nc1ncccc1-c1cc(Cc2ccc(Cc3ccc(F)o3)cc2)no1 [compound 124]

>  <MIC>
0.01 to 0.1 µg/mL

$$$$
>  <compound>
Cc1cc(COc2ccc(Cc3cc(-c4cccnc4N)on3)cc2)no1 [compound 26]

>  <MIC>
0.1 to 1 µg/mL

$$$$
>  <compound>
CC(Oc1ccc(Cc2cc(-c3cccnc3N)on2)cn1)c1ccccn1 (stereo not shown) [compound 55]

>  <MIC>
0.1 to 1 µg/mL

$$$$
>  <compound>
Nc1ncccc1-c1cc(Cc2ccc(Cc3ccnc(F)c3)cc2)no1 [compound 19]

>  <MIC>
0.01 to 0.1 µg/mL

$$$$
>  <compound>
Nc1ncccc1-c1cc(Cc2ccc(OCc3ccc(F)cc3)nc2)no1 [compound 187]

>  <MIC>
0.1 to 1 µg/mL

$$$$
>  <compound>
Nc1ncccc1-c1cc(Cc2ccc(OCc3ccncc3)cc2)no1 [Example 139]

>  <MIC>
0.01 to 0.1 µg/mL

$$$$
>  <compound>
Nc1ncccc1-c1cc(Cc2ccnc(OCC3CC3)c2)no1 [Example 150]

>  <MIC>
0.1 to 1 µg/mL

$$$$
>  <compound>
Nc1ncccc1-c1cc(Cc2ccc(OCc3ccncc3Cl)nc2)no1 [compound 218]

>  <MIC>
> 1 µg/mL

$$$$
>  <compound>
Nc1ncccc1-c1cc(Cc2ccc(OCc3ccc4ccccc4n3)cc2)no1 [compound 27]

>  <MIC>
0.1 to 1 µg/mL

$$$$
>  <compound>
Nc1ncccc1-c1cc(Cc2ccc(Nc3ccc(F)c(F)c3F)nc2)no1 [compound 245]

>  <MIC>
0.1 to 1 µg/mL

$$$$
>  <compound>
Nc1ncccc1-c1cc(Cc2ccc(OCCCc3ccccc3)nc2)no1 [compound 213]

>  <MIC>
0.1 to 1 µg/mL

$$$$
>  <compound>
Nc1ncccc1-c1cc(Cc2ccc(OCc3ccccc3F)cc2)no1 [Example 141]

>  <MIC>
0.01 to 0.1 µg/mL

$$$$
>  <compound>
Nc1ncccc1-c1cc(Cc2ccc(Cc3ccccc3)cc2)no1 [compound 8]

>  <MIC>
0.01 to 0.1 µg/mL

$$$$
>  <compound>
Nc1ncccc1-c1cc(Cc2cnc(Nc3c(F)cccc3F)c(F)c2)no1 [compound 253]

>  <MIC>
0.1 to 1 µg/mL

$$$$
>  <compound>
Nc1ncccc1-c1cc(Cc2ccc(Oc3ccc(F)cn3)cc2)no1 [compound 246]

>  <MIC>
0.01 to 0.1 µg/mL

$$$$
>  <compound>
Nc1ncccc1-c1cc(Cc2cnc(OCc3cccc(F)c3)nc2)no1 [compound 249]

>  <MIC>
0.1 to 1 µg/mL

$$$$
>  <compound>
Nc1ncccc1-c1cc(Cc2ccc(OCCn3cncn3)nc2)no1 [compound 202]

>  <MIC>
> 1 µg/mL

$$$$
>  <compound>
Nc1ncccc1-c1cc(Cc2ccc(Oc3cccc(Cl)c3)nc2)no1 [Example 161]

>  <MIC>
0.01 to 0.1 µg/mL

$$$$
>  <compound>
Nc1ncccc1-c1cc(Cc2ccc(-c3ccncc3)cc2)no1 [compound 204]

>  <MIC>
> 1 µg/mL

$$$$
>  <compound>
Cc1cncc(COc2ccc(Cc3cc(-c4cccnc4N)on3)cc2)c1 [compound 114]

>  <MIC>
0.1 to 1 µg/mL

$$$$

====

// values below are MIC; system is Cryptococcus gattii
observable: MIC

>  <compound>
Nc1ncccc1-c1cc(Cc2ccc(Cc3cccc(F)c3)cc2)no1 [compound 208]

>  <result>
0.01 to 0.1 µg/mL

$$$$
>  <compound>
c1ccc(COc2ccc(Cn3cc(-c4cccnc4)cn3)cn2)cc1 [compound 65]

>  <result>
0.1 to 1 µg/mL

$$$$
>  <compound>
Nc1ncccc1-c1cc(Cc2ccc(OCc3ccncc3)cc2)no1 [Example 139]

>  <result>
≤ 0.01 µg/mL

$$$$
>  <compound>
Nc1ncccc1-c1cc(Cc2ccc(Oc3cccc(F)n3)c(F)c2)no1 [compound 258]

>  <result>
0.1 to 1 µg/mL

$$$$
>  <compound>
Nc1ncccc1-c1cc(Cc2ccc(OCc3cc(F)cc(F)c3)nc2)no1 [compound 84]

>  <result>
0.1 to 1 µg/mL

$$$$

====

# Test system: Cryptococcus gattii
The following compounds are listed with their measured MIC values.

>  <compound>
Nc1ncccc1-c1cc(Cc2cnc(OCc3ccccc3)c(F)c2)no1 [compound 257]

>  <MIC>
> 1 µg/mL

$$$$
>  <compound>
Nc1ncccc1-c1cc(Cc2cnc(Nc3ccccc3F)c(F)c2)no1 [compound 250]

>  <MIC>
0.1 to 1 µg/mL

$$$$
>  <compound>
CC(C)=CCOc1ccc(Cc2cc(-c3ccc(N)nc3N)on2)cc1 [compound 135]

>  <MIC>
0.1 to 1 µg/mL

$$$$
>  <compound>
Cc1ccc(Cc2ccc(Cc3cc(-c4cccnc4N)on3)cc2)o1 [compound 122]

>  <MIC>
0.01 to 0.1 µg/mL

$$$$
>  <compound>
Nc1ncccc1-c1cc(Cc2ccc(COC3CCCCC3)cc2)no1 [compound 23]

>  <MIC>
0.01 to 0.1 µg/mL

$$$$
>  <compound>
Nc1ncccc1-c1cc(Cc2ccc(CNc3cc(F)ccc3F)cc2)no1 [compound 196]

>  <MIC>
0.1 to 1 µg/mL

$$$$
>  <compound>
Nc1ncccc1-c1cc(Cc2ccc(Sc3ccccc3)nc2)no1 [compound 186]

>  <MIC>
0.01 to 0.1 µg/mL

$$$$
